biological target: VIPR2 (Homo sapiens, UniProt P41587); assay: Inhibition of VIP-induced cAMP elevation (% Activity cAMP); type: cell-based; design: expressed in transfected cells; host or cells: HEK293 cells transfected with VIPR2 in pCDNA3.1 (as described); conditions: 0.5 μM, Batch 3
quantity_kind: inhibition at 0.5 µM
Answer with the figure and its unit, nothing else.

(Q) Bench note: what inhibition at 0.5 µM did CCC(=O)Nc1ccc(S(=O)(=O)NC[C@@H](O)C[C@@H](Cc2ccccc2)C(=O)N[C@H]2c3ccccc3C[C@H]2O)cc1 show?
(A) 0.6%

Further cases:
(Q) Bench note: what inhibition at 0.5 µM did CC(C)Nc1ccc(S(=O)(=O)NC[C@@H](O)C[C@@H](Cc2ccccc2)C(=O)N[C@H]2c3ccccc3C[C@H]2O)cc1 show?
(A) 17.2%

(Q) Bench note: what inhibition at 0.5 µM did CCCNc1ccc(S(=O)(=O)NC[C@@H](O)C[C@@H](Cc2ccccc2)C(=O)N[C@H]2c3ccccc3C[C@H]2O)cc1 show?
(A) -2.9%

* * *

target: VIPR2 (Homo sapiens); assay: Inhibition of VIP-induced β-arrestin recruitment (% Activity Arrestin); type: cell-based; set-up: expressed in transfected cells; host or cells: HEK293 cells transfected with VIPR2 in pCDNA3.1 (as described); details: 1 μM, Batch 3
The entries below come with measured inhibition at 1 µM values attached.
Express your answer in %, writing the number without its unit.

(Q) Bench note: what inhibition at 1 µM did CNC(=O)c1ccc(S(=O)(=O)NC[C@@H](O)C[C@@H](Cc2ccccc2)C(=O)N[C@H]2c3ccccc3C[C@H]2O)cc1 [Compound X095] show?
(A) -1.6

(Q) Bench note: what inhibition at 1 µM did CCC(=O)Nc1ccc(S(=O)(=O)NC[C@@H](O)C[C@@H](Cc2ccccc2)C(=O)N[C@H]2c3ccccc3C[C@H]2O)cc1 [Compound X091] show?
(A) -1.2

(Q) Bench note: what inhibition at 1 µM did CC(=O)Nc1ccc(S(=O)(=O)NC[C@H](C[C@@H](Cc2ccccc2)C(=O)N[C@H]2c3ccccc3C[C@H]2OC(C)=O)OC(C)=O)cc1 [Compound X090] show?
(A) 0.2

Read the next record carefully.
(Q) Bench note: what inhibition at 1 µM did CNc1ccc(S(=O)(=O)NC[C@@H](O)C[C@@H](Cc2ccccc2)C(=O)N[C@H]2c3ccccc3C[C@H]2O)cc1 [Compound X082] show?
(A) 1.1

* * *

Biological target: VIPR2 (Homo sapiens, UniProt P41587)
Sequence (P41587 24-438): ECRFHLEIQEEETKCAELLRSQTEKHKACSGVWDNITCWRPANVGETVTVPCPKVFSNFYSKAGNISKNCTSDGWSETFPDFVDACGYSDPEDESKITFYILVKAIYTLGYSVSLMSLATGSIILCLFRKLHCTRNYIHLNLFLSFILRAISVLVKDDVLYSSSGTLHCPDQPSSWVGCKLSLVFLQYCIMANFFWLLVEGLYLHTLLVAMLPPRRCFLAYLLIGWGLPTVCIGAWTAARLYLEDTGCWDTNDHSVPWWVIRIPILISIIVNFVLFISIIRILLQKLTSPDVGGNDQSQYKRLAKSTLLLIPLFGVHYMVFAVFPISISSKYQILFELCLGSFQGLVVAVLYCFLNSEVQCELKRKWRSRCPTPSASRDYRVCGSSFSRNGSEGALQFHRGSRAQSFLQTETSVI
Test: Inhibition of VIP-induced β-arrestin recruitment (% Activity Arrestin)
Type: cell-based
Parameters: expressed in transfected cells; host or cells: HEK293 cells transfected with VIPR2 in pCDNA3.1 (as described)
Conditions: 0.5 μM, Batch 2
quantity_kind: inhibition at 0.5 µM (%)
Express your answer in %, writing the number without its unit.

(Q) Tell me reported inhibition at 0.5 µM for O=C(NCc1ccc(F)cc1F)[C@H](Cc1ccccc1)C[C@H](O)CNS(=O)(=O)c1ccc([N+](=O)[O-])cc1 [Compound B14A] , tested with VIPR2 (Homo sapiens, UniProt P41587).
(A) -19.5

(Q) Tell me reported inhibition at 0.5 µM for O=C(NC1CCCCCC1)[C@@H](Cc1ccccc1)C[C@H](O)CNS(=O)(=O)c1ccc([N+](=O)[O-])cc1 , tested with VIPR2 (Homo sapiens, UniProt P41587).
(A) -4

(Q) Tell me reported inhibition at 0.5 µM for C[C@H](CC(C)(C)C)NC(=O)[C@@H](Cc1ccccc1)C[C@H](O)CNS(=O)(=O)c1ccc([N+](=O)[O-])cc1 [Compound B10B] , tested with VIPR2 (Homo sapiens, UniProt P41587).
(A) 36.8

(Q) Tell me reported inhibition at 0.5 µM for C[C@H](CC(C)(C)C)NC(=O)[C@H](Cc1ccccc1)C[C@H](O)CNS(=O)(=O)c1ccc([N+](=O)[O-])cc1 [Compound B10A] , tested with VIPR2 (Homo sapiens, UniProt P41587).
(A) 23.3

(Q) Tell me reported inhibition at 0.5 µM for O=C(NC1CCCC1)[C@H](Cc1ccccc1)C[C@H](O)CNS(=O)(=O)c1ccc([N+](=O)[O-])cc1 , tested with VIPR2 (Homo sapiens, UniProt P41587).
(A) 17.4

Further cases:
(Q) Tell me reported inhibition at 0.5 µM for O=C([C@H](Cc1ccccc1)C[C@H](O)CNS(=O)(=O)c1ccc([N+](=O)[O-])cc1)N1CCC(CO)CC1 , tested with VIPR2 (Homo sapiens, UniProt P41587).
(A) -8.4

(Q) Tell me reported inhibition at 0.5 µM for CCN(CC)C(=O)[C@@H](Cc1ccccc1)C[C@H](O)CNS(=O)(=O)c1ccc([N+](=O)[O-])cc1 [Compound B15B] , tested with VIPR2 (Homo sapiens, UniProt P41587).
(A) -3.6

(Q) Tell me reported inhibition at 0.5 µM for CC1CCC(NC(=O)[C@@H](Cc2ccccc2)C[C@H](O)CNS(=O)(=O)c2ccc([N+](=O)[O-])cc2)CC1 (stereo partly drawn) , tested with VIPR2 (Homo sapiens, UniProt P41587).
(A) 5.7

(Q) Tell me reported inhibition at 0.5 µM for O=C([C@@H](Cc1ccccc1)C[C@H](O)CNS(=O)(=O)c1ccc([N+](=O)[O-])cc1)N1CCCCC1 [Compound B18B] , tested with VIPR2 (Homo sapiens, UniProt P41587).
(A) 0.5

* * *

biological target: VIPR2 (Homo sapiens, UniProt P41587); test: Inhibition of VIP-induced β-arrestin recruitment (% Activity Arrestin); assay type: cell-based; design: expressed in transfected cells; host or cells: HEK293 cells transfected with VIPR2 in pCDNA3.1 (as described); details: 5 μM, Batch 2
quantity_kind: inhibition at 5 µM (%)
Express your answer in %, writing the number without its unit.

Sample answers from the record:
(Q) Tell me reported inhibition at 5 µM for O=C(NN1CCCCC1)[C@H](Cc1ccccc1)C[C@H](O)CNS(=O)(=O)c1ccc([N+](=O)[O-])cc1 , tested with VIPR2 (Homo sapiens, UniProt P41587).
(A) 6.5

(Q) Tell me reported inhibition at 5 µM for CCN(CC)C(=O)[C@@H](Cc1ccccc1)C[C@H](O)CNS(=O)(=O)c1ccc([N+](=O)[O-])cc1 [Compound B15B] , tested with VIPR2 (Homo sapiens, UniProt P41587).
(A) -2.7

(Q) Tell me reported inhibition at 5 µM for O=C(NC1CCCc2ccccc21)[C@@H](Cc1ccccc1)C[C@H](O)CNS(=O)(=O)c1ccc([N+](=O)[O-])cc1 (some centres unmarked) [Compound B13B] , tested with VIPR2 (Homo sapiens, UniProt P41587).
(A) 0.6

(Q) Tell me reported inhibition at 5 µM for O=C(NC1CCCCCC1)[C@H](Cc1ccccc1)C[C@H](O)CNS(=O)(=O)c1ccc([N+](=O)[O-])cc1 , tested with VIPR2 (Homo sapiens, UniProt P41587).
(A) -2.4

(Q) Tell me reported inhibition at 5 µM for CC1CCC(NC(=O)[C@H](Cc2ccccc2)C[C@H](O)CNS(=O)(=O)c2ccc([N+](=O)[O-])cc2)CC1 (some centres unmarked) , tested with VIPR2 (Homo sapiens, UniProt P41587).
(A) 0.4

(Q) Tell me reported inhibition at 5 µM for CC1CCC(NC(=O)[C@@H](Cc2ccccc2)C[C@H](O)CNS(=O)(=O)c2ccc([N+](=O)[O-])cc2)CC1 (some centres unmarked) , tested with VIPR2 (Homo sapiens, UniProt P41587).
(A) -0.8

(Q) Tell me reported inhibition at 5 µM for C#CCNC(=O)[C@H](Cc1ccccc1)C[C@H](O)CNS(=O)(=O)c1ccc([N+](=O)[O-])cc1 [Compound B21A] , tested with VIPR2 (Homo sapiens, UniProt P41587).
(A) -0.2

(Q) Tell me reported inhibition at 5 µM for O=C([C@@H](Cc1ccccc1)C[C@H](O)CNS(=O)(=O)c1ccc([N+](=O)[O-])cc1)N1CCCCC1 [Compound B18B] , tested with VIPR2 (Homo sapiens, UniProt P41587).
(A) 14.9

Further cases:
(Q) Tell me reported inhibition at 5 µM for O=C(NC1CCCC1)[C@H](Cc1ccccc1)C[C@H](O)CNS(=O)(=O)c1ccc([N+](=O)[O-])cc1 , tested with VIPR2 (Homo sapiens, UniProt P41587).
(A) 9.2

(Q) Tell me reported inhibition at 5 µM for O=C([C@@H](Cc1ccccc1)C[C@H](O)CNS(=O)(=O)c1ccc([N+](=O)[O-])cc1)N1CCOCC1 , tested with VIPR2 (Homo sapiens, UniProt P41587).
(A) 0.3

(Q) Tell me reported inhibition at 5 µM for O=C(NCc1ccccc1)[C@H](Cc1ccccc1)C[C@H](O)CNS(=O)(=O)c1ccc([N+](=O)[O-])cc1 , tested with VIPR2 (Homo sapiens, UniProt P41587).
(A) 24.2

(Q) Tell me reported inhibition at 5 µM for CNC(=O)[C@H](Cc1ccccc1)C[C@H](O)CNS(=O)(=O)c1ccc([N+](=O)[O-])cc1 , tested with VIPR2 (Homo sapiens, UniProt P41587).
(A) 3.2

(Q) Tell me reported inhibition at 5 µM for O=C(NC1CCCc2ccccc21)[C@H](Cc1ccccc1)C[C@H](O)CNS(=O)(=O)c1ccc([N+](=O)[O-])cc1 (some centres unmarked) [Compound B13A] , tested with VIPR2 (Homo sapiens, UniProt P41587).
(A) 10.2

(Q) Tell me reported inhibition at 5 µM for O=C([C@H](Cc1ccccc1)C[C@H](O)CNS(=O)(=O)c1ccc([N+](=O)[O-])cc1)N1CCCCC1 [Compound B18A] , tested with VIPR2 (Homo sapiens, UniProt P41587).
(A) -2.8

All figures here come from patent US20150239831A1.
